Values were extracted from patent US10369145B2.

- Test system: NCI-H322M
- ASSAY_EXPLANATION: NCI 60 panel: NCI-H322M (Non-Small Cell Lung Cancer)
- Format: cell-based
- DETAILS: read-out: LC50 (the source's name)
OUTCOME_MEASURE: CC50 (µM)
Give bare numbers, in µM.

Find the recorded CC50 belonging to COc1ccccc1Nc1nc(-c2cc3cccc(N)c3oc2=O)cs1 and report it.
93.3

----------
- Tested on: NCI-H226
- ASSAY_EXPLANATION: NCI 60 panel: NCI-H226 (Non-Small Cell Lung Cancer)
- Type: cell-based
- DETAILS: read-out: LC50 (the source's name)
OUTCOME_MEASURE: CC50

Dear colleague, I am looking for the recorded CC50 of the following compound: COc1ccccc1Nc1nc(-c2cc3cccc(N)c3oc2=O)cs1
> 100 µM

----------
- System: U251MG
- ASSAY_EXPLANATION: Complementary DBM in vitro profiling: U251MG (CNS Cancer)
- Assay type: cell-based
- DETAILS: read-out: LC50 (the source's name)
OUTCOME_MEASURE: CC50

Consider the compound COc1ccccc1Nc1nc(-c2cc3cccc(N)c3oc2=O)cs1 [Compound DBM 228] and give its measured CC50.
> 30 µM

----------
- Test system: tubulin
- ASSAY_EXPLANATION: Biochemical tubulin polymerization
- DETAILS: FIG. 11C
OUTCOME_MEASURE: effect on biochemical tubulin polymerization, in words

Consider the reported effect on biochemical tubulin polymerization, in words for these molecules:
{"MOLECULE": "COc1ccccc1Nc1nc(-c2cc3cccc(N)c3oc2=O)cs1 [Compound DBM 228]", "MEASURED_VALUE": "modestly inhibited"}
{"MOLECULE": "COc1ccccc1Nc1nc(-c2cc3cccc([N+](=O)[O-])c3oc2=O)cs1 [Compound DBM 227]", "MEASURED_VALUE": "modestly inhibited"}
{"MOLECULE": "COc1ccccc1Nc1nc(-c2cc3cccc(Br)c3oc2=O)cs1 [Compound DBM 318]", "MEASURED_VALUE": "modestly inhibited"}
{"MOLECULE": "COc1ccccc1Nc1nc(-c2cc3cccc(C)c3oc2=O)cs1 [Compound DBM 707]", "MEASURED_VALUE": "modestly inhibited"}
{"MOLECULE": "COc1ccccc1Nc1nc(-c2cc3cccc(Cl)c3oc2=O)cs1 [Compound DBM 308]", "MEASURED_VALUE": "modestly inhibited"}

// moving on: another record for effect on biochemical tubulin polymerization, in words
Fill in the blank: the reported effect on biochemical tubulin polymerization, in words of COc1ccccc1Nc1nc(-c2cc3ccc(N)c([N+](=O)[O-])c3oc2=O)cs1 [Compound DBM 715] is ____.
modestly inhibited

----------
- Test system: SF-539
- ASSAY_EXPLANATION: NCI 60 panel: SF-539 (CNS Cancer)
- Assay type: cell-based
- DETAILS: read-out: LC50 (the source's name)
OUTCOME_MEASURE: CC50 (µM)
Numbers only, in µM.

Requested read-out: CC50. Entry: COc1ccccc1Nc1nc(-c2cc3cccc(N)c3oc2=O)cs1
29.8

----------
- Test system: IGROV1
- ASSAY_EXPLANATION: NCI 60 panel: IGROV1 (Ovarian Cancer)
- Type: cell-based
- DETAILS: read-out: LC50 (the source's name)
OUTCOME_MEASURE: CC50

What value of CC50 has been reported for the following compound? COc1ccccc1Nc1nc(-c2cc3cccc(N)c3oc2=O)cs1 [Compound DBM 228]
> 100 µM
